Test: binders from COS7 lysate, DM2A8 probe, primary screen, torsin A project, cell lysate, small-molecule microarray, fluorescence 635/667 (AID 1065)
Conditions: higher = more signal, COS7 lysate expressing mutant human TOR1A
# composite z-score per entry

molecule: COC(=O)CC=C[C@@H](C)[C@@H](C=NOC[C@@H](O)COCc1ccco1)OC
composite z-score: 2.07
//
molecule: CC(C)=CCCC(C)=CCON=C1C[C@@H](O)[C@@H](O)[C@@H]2[C@@H]3C(=O)N(c4cccc(Oc5ccccc5)c4)C(=O)[C@@H]3CC[C@H]12
composite z-score: -0.0323
//
molecule: COC(=O)[C@H](Cc1ccccc1)NC(=O)[C@@H](C)CO
composite z-score: 0.482
//
molecule: CCOC(=O)[C@H](CC(C)C)NC(=O)CCC1CC(OC(=O)NCCc2ccc(F)cc2)CC2(CCCC(COC(=O)NCc3cccc4ccccc34)O2)O1 (stereo partly specified)
composite z-score: 0.685
//
molecule: Cc1ccc(C(C)C)n1C(=O)OC(C)(C)C
composite z-score: 0.166
//
molecule: C[C@@H](c1ccccc1)N1C(=O)[C@H]2[C@H]3[C@H](O)[C@H](O)CC(=NOCc4ccccc4)[C@@H]3CC[C@H]2C1=O
composite z-score: -0.0647
//
molecule: CON(C)C(=O)c1nnc2c(n1)[nH]c1ccccc12
composite z-score: 0.668
//
molecule: CC(CCN1CCCc2nc(C)c(C)cc21)=NO[C@H](C)c1cn([C@@H]2COC[C@H]2O)nn1
composite z-score: 1.37
//
molecule: CON=C(C)CCC(=O)OC[C@H]1O[C@H](C#Cc2ccccc2)C=C[C@@H]1Oc1ccc(C)cc1
composite z-score: -0.172
//
molecule: CCOC(=O)[C@H](CC(C)C)NC(=O)CCC1CC(OC(=O)NCc2ccc3c(c2)OCO3)CC2(CCCC(COC(=O)NCc3ccccc3)O2)O1 (stereo partly specified)
composite z-score: 0.01
//
molecule: CCN1C(=O)[C@H]2[C@H]3[C@H](O)[C@H](O)CC(=NOCC[C@@H]4C=C[C@H](OC(C)=O)[C@@H](COC(C)=O)O4)[C@@H]3CC[C@H]2C1=O
composite z-score: 0.198
//
molecule: CCN1C(=O)[C@H]2[C@H]3[C@H](O)[C@H](O)CC(=NO[C@H](C)c4cn([C@@H]5COC[C@H]5O)nn4)[C@@H]3CC[C@H]2C1=O
composite z-score: 0.307
//
molecule: O=C1C[C@@H](O)[C@@H](O)[C@@H]2[C@@H]3C(=O)N(C4CCCCC4)C(=O)[C@@H]3CC[C@@H]12
composite z-score: 0.159
//
molecule: COc1ccc(COC(=O)NN=C2C[C@@H](O)[C@@H](O)[C@@H]3[C@@H]4C(=O)N(C[C@@H]5CCCO5)C(=O)[C@@H]4CC[C@H]23)cc1
composite z-score: 0.326
//
molecule: CC(=O)OC[C@H]1O[C@H](CC=NO[C@@H](C)c2cc(-c3c(C)cc(C)cc3C)no2)C=C[C@@H]1OC(C)=O
composite z-score: -0.264
//
molecule: O=C1CCCC=C1C(O)C1CCCCC1 (stereo unspecified)
composite z-score: 0.835
//
molecule: CC[C@@H](c1ccccc1)n1c(=O)n2n(c1=O)[C@H]1[C@H](O)[C@@H]3O[C@@H]3C(=NOCc3ccccc3)[C@H]1CC2
composite z-score: 0.374
//
molecule: CCOC(=O)[C@H](CC(C)C)NC(=O)CCC1CC(OC(=O)NCc2ccc3c(c2)OCO3)CC2(CCCC(COC(=O)NCCOc3ccccc3)O2)O1 (stereo partly specified)
composite z-score: 0.143
//
molecule: CC(=O)OC[C@H]1O[C@H](CC=NOC(C)CN2CCCCc3nc(C)c(C)cc32)C=C[C@@H]1OC(C)=O (stereo partly specified)
composite z-score: 2.35
//
molecule: COC(=O)CC=C[C@@H](C)[C@@H](C=NOC(C)CN1CCCCc2nc(C)c(C)cc21)OC (stereo partly specified)
composite z-score: 2.43
//
molecule: CC(C)CON=C1C[C@@H](O)[C@@H](O)[C@@H]2[C@@H]3C(=O)N(c4ccc(F)cc4F)C(=O)[C@@H]3CC[C@@H]12
composite z-score: 0.118
//
molecule: CCCNC(=O)OC[C@H]1O[C@H](CCON=C[C@@H](NS(=O)(=O)c2ccc(C)cc2)[C@H](C)C=CCC(=O)OC)C=C[C@@H]1Oc1ccc(OC)cc1
composite z-score: 0.724
//
molecule: CC(C)=NO[C@H](C)c1cn([C@@H]2COC[C@H]2O)nn1
composite z-score: -0.276
//
molecule: CON=C(C)CCN1CCc2nc(-c3ccccc3)c(-c3ccccc3)cc2C1
composite z-score: -0.052
//
molecule: CC(CCC(=O)OC[C@H]1O[C@H](C#Cc2ccccc2)C=C[C@@H]1Oc1ccc(C)cc1)=NO[C@H](C)c1cn([C@@H]2COC[C@H]2O)nn1
composite z-score: 0.522
//
molecule: COC(=O)CC=C[C@@H](C)[C@@H](C=NOC[C@@H](C)[C@H](OCc1ccccc1)C(C)C)OC
composite z-score: -0.163
//
molecule: CCN(CC)CC(O)CN1CCCCc2nc(C)c(C)cc21 (stereo unspecified)
composite z-score: 1.04
//
molecule: O=C1C=C[C@@H](O)[C@@H]2[C@@H]3C(=O)N(C4CCCCC4)C(=O)[C@@H]3CC[C@@H]12
composite z-score: 0.0002
//
molecule: C=CC[C@@H]1C=C[C@H](ON=C[C@@H](NS(=O)(=O)c2ccc(C)cc2)[C@H](C)C=CCC(=O)OC)[C@@H](CO)O1
composite z-score: 0.571
//
molecule: CC(=O)OC[C@H]1O[C@@H](ON=C2[C@H]3CCn4c(=O)n(-c5ccccc5)c(=O)n4[C@H]3[C@H](O)[C@@H]3O[C@H]23)[C@H](OC(C)=O)[C@@H](OC(C)=O)[C@@H]1OC(C)=O
composite z-score: 0.617
//
molecule: O=C1CCCC=C1C(O)COCc1ccccc1 (stereo unspecified)
composite z-score: 0.217

====

# composite z-score per entry
Tested on: wheat germ agglutinin (Triticum aestivum), Alexa647-labelled
Experiment: wheat germ agglutinin binders on compound microarrays, profiling panel, artefact control for SMM control-protein annotation, biochemical, small-molecule microarray, 635/667 nm fluorescence (AID 1140);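 note: score merges 667 nm feature emission with signal to noise over triplicate slides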
Settings: WGA-A647 binding, 635 nm fluorescence, higher = more signal

compound: COc1cccc([C@H]2Oc3ccc(OC)cc3C(=NO[C@@H](C)c3cc(-c4c(C)cc(C)cc4C)no3)[C@@H]2O)c1
composite z-score: -0.52
//
compound: COc1ccc(O[C@H]2C=C[C@@H](c3ccccc3)O[C@@H]2COC(=O)NCc2cccc3ccccc23)cc1
composite z-score: -0.317
//
compound: CCOC(=O)CCN1C(=O)[C@H]2[C@H]3[C@H](O)[C@H](O)CC(=NO[C@@H]4O[C@H](CO)[C@@H](O)[C@H](O)[C@H]4O)[C@@H]3CC[C@H]2C1=O
composite z-score: 0.829
//
compound: CON=C(C)CCN1CCCCc2nc(C)c(C)cc21
composite z-score: 0.495
//
compound: CCCCOC(OCCCC)C(O)CSc1ccc2ccccc2c1 (stereo unspecified)
composite z-score: 0.264
//
compound: CCN1C(C)=C(C(=O)OC)[C@@H](c2ccccc2)N2C(=O)[C@](O)(C(=O)OC)CC(C(C)=O)=C12
composite z-score: 0.278
//
compound: CCOC(=O)[C@H](Cc1ccccc1)NC(=O)CCC1CC(OC(=O)NCc2ccc3c(c2)OCO3)CC2(CCCC(COC(=O)NCCOc3ccccc3)O2)O1 (stereo partly specified)
composite z-score: 0.304
//
compound: C[C@@H](c1ccccc1)N1C(=O)[C@H]2[C@H]3[C@H](O)[C@H](O)CC(=NOCc4ccccc4)[C@@H]3CC[C@H]2C1=O
composite z-score: 0.32
//
compound: C#CCCCON=C1C[C@@H](O)[C@@H](O)[C@@H]2[C@@H]3C(=O)N(CC)C(=O)[C@@H]3CC[C@H]12
composite z-score: 1.07
//
compound: CCOC(=O)CCN1C(=O)[C@H]2[C@H]3[C@H](O)[C@H](O)CC(=O)[C@@H]3CC[C@H]2C1=O
composite z-score: 0.157
//
compound: CCOC(=O)[C@H](Cc1ccccc1)NC(=O)CCC1CC(OC(=O)NCCc2ccc(F)cc2)CC2(CCCC(COC(=O)NCc3cccc(C(F)(F)F)c3)O2)O1 (stereo partly specified)
composite z-score: 0.502
//
compound: CCOC(=O)[C@H](Cc1ccccc1)NC(=O)CCC1CC(OC(=O)NCc2cccc3ccccc23)CC2(CCCC(COC(=O)NCCc3ccc(Cl)cc3)O2)O1 (stereo partly specified)
composite z-score: 0.556
//
compound: O=C1C=C[C@@H](O)[C@@H]2[C@@H]3C(=O)N(c4cccc(Oc5ccccc5)c4)C(=O)[C@@H]3CC[C@@H]12
composite z-score: 0.228
//
compound: C#CCCCON=C1[C@H]2CCn3c(=O)n([C@@H](CC)c4ccccc4)c(=O)n3[C@H]2[C@H](O)[C@@H]2O[C@H]12
composite z-score: 0.283
//
compound: CO[C@@H]1COC(=O)CC=C[C@H](C)[C@H](OC)COC(=O)[C@@H]2CCCN2C(=O)CC=C[C@H]1C
composite z-score: -1.11
//
compound: COC(=O)[C@H](Cc1ccccc1)NC(=O)[C@@H](C)CO
composite z-score: 0.821
